Target: C-C chemokine receptor type 2 (Mus musculus) (UniProt P51683)
Sequence (P51683 whole entry, looked up): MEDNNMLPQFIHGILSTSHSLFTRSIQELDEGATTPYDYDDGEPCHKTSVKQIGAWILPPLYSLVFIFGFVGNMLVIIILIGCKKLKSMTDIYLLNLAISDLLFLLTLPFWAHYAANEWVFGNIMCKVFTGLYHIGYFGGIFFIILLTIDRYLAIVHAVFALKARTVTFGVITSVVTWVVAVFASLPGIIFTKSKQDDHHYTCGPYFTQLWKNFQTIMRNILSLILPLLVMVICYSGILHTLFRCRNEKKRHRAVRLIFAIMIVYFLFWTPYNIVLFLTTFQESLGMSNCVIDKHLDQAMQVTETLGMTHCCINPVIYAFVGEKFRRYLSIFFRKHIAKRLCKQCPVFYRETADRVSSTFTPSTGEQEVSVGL
Experiment: Binding affinity to mouse CCR2
Calls of active or inactive are those of the source. No cut-off for these calls is given here.
Choose the fitting class; nothing outside T = active, F = inactive is accepted.

Request: Give the logged outcome of this assay for the following compound: CCC[C@@H](O)[C@H](CNCc1ccc(C)cc1C)NC(=O)CNC(=O)c1cc(C(F)(F)F)ccc1N
Response: F

Request: Give the logged outcome of this assay for the following compound: CCC[C@H](O)[C@H](CNCc1ccc(C)cc1C)NC(=O)CNC(=O)c1cc(C(F)(F)F)ccc1N
Response: T

Continue with the next compound.
Request: Give the logged outcome of this assay for the following compound: CCC[C@H](O)[C@H](CNCc1ccc(C)cc1C)NC(=O)CNC(=O)c1cc(C(F)(F)F)ccc1NC(=O)OC(C)(C)C
Response: T
